Recorded values, source ChEMBL document CHEMBL3588788.

System: Plasmodium falciparum
Test: Antiplasmodial activity against Plasmodium falciparum 3D7 assessed as inhibition of parasite viability at 100 ug/ml by parasite lactate dehydrogenase assay
Type: functional
quantity.kind: inhibition at 100 µg/mL (%)
Respond numerically; units are % and should not be typed.

Observe how each entry below is paired with its result.
chemical.structure	reported.value
CC(=O)O[C@@H]1CC[C@@]2(C)[C@@H](C1)[C@@H](OC(C)=O)[C@@H](OC(C)=O)[C@@H]1[C@@H]2CC[C@]2(C)[C@@H]([C@H](C)CCC(=O)O)CC[C@@H]12	97
C[C@H](CCC(=O)O)[C@H]1CC[C@H]2[C@@H]3[C@H](O)C[C@@H]4C[C@H](O)CC[C@]4(C)[C@H]3C[C@H](O)[C@]12C	83

Prompt: For the molecule shown here, CC(=O)O[C@@H]1CC[C@@]2(C)[C@@H](C1)C[C@@H](OC(C)=O)[C@@H]1[C@@H]2CC[C@]2(C)[C@@H]([C@H](C)CCC(=O)O)CC[C@@H]12 , give the reported inhibition at 100 µg/mL.
Response: 90

Prompt: For the molecule shown here, CC(=O)O[C@@H]1CC[C@@]2(C)[C@H](CC[C@@H]3[C@@H]2CC[C@]2(C)[C@@H]([C@H](C)CCC(=O)O)CC[C@@H]32)C1 , give the reported inhibition at 100 µg/mL.
Response: 100

Prompt: For the molecule shown here, CC(=O)O[C@@H]1CC[C@@]2(C)[C@@H](C1)C[C@@H](OC(C)=O)[C@@H]1[C@@H]2C[C@H](OC(C)=O)[C@]2(C)[C@@H]([C@H](C)CCC(=O)O)CC[C@@H]12 , give the reported inhibition at 100 µg/mL.
Response: 100
